test system: ECHORC (Watergrass (Calif.)); assay: Postemergence weed control under flooded paddy conditions; type: in vivo, Echinochloa oryzoides; conditions: rate 0.0625 kg/ha, postemergence weeds, 3-4 weeks after treatment

Molecule: CCOC(=O)CN1C(=O)C(CC(=O)OC(C)C)SC1=Nc1cc(-n2c(=O)cc(C(F)(F)F)n(C)c2=O)c(F)cc1Cl (stereo not drawn)
Test target: ECHORC (Watergrass (Calif.))
Herbicidal rating ECHORC: 7.0
--
Molecule: CCOC(=O)CN1C(=O)C(Cc2ccccc2OC)SC1=Nc1cc(-n2c(=O)cc(C(F)(F)F)n(C)c2=O)c(F)cc1Cl (stereo not drawn)
Test target: ECHORC (Watergrass (Calif.))
Herbicidal rating ECHORC: 6.0
--
Molecule: CCOC(=O)CN1C(=O)C(CC(=O)O)S/C1=N/c1cc(-n2c(=O)cc(C(F)(F)F)n(C)c2=O)c(F)cc1Cl (stereo not drawn)
Test target: ECHORC (Watergrass (Calif.))
Herbicidal rating ECHORC: 0.0

* * *

test system: SETVI (Foxtail, Green); assay: Postemergence herbicidal evaluation; assay type: in vivo, Setaria viridis; settings: postemergence, rate 0.0313 kg/ha
Some compounds, each annotated with its measured Herbicidal rating SETVI.

Compound: C=C1SC(=Nc2cc(-n3c(=O)cc(C(F)(F)F)n(C)c3=O)c(F)cc2Cl)N(CC(=O)OCC)C1=O
Herbicidal rating SETVI: 0.0

Compound: Cn1c(C(F)(F)F)cc(=O)n(-c2cc(N=C3SCC(=O)N3C3CCC3)c(Cl)cc2F)c1=O
Herbicidal rating SETVI: 0.0

Compound: CCOC(=O)CN1C(=O)C(CC(=O)O)SC1=Nc1cc(N2C(=O)CC(C(F)(F)F)CC2=O)c(F)cc1Cl (stereo not drawn)
Herbicidal rating SETVI: 9.0

* * *

Some molecules, each annotated with its measured Preemergence herbicidal rating GLXMAW.
test system: GLXMAW (Soybean, Williams); assay: Preemergence herbicidal evaluation; format: in vivo, Glycine max, (L.) Merr. cv Williams; conditions: rate 0.1250 kg/ha; rated 4-5 weeks after treatment; rating scale 0-9

Input smiles: Cn1c(C(F)(F)F)cc(=O)n(-c2cc(N=C3SCC(=O)N3Cc3ccncc3)c(Cl)cc2F)c1=O
Test target: GLXMAW (Soybean, Williams)
Preemergence herbicidal rating GLXMAW: 0.0
--
Input smiles: Cn1c(C(F)(F)F)cc(=O)n(-c2cc(N=C3SCC(=O)N3Cc3ccccn3)c(Cl)cc2F)c1=O
Test target: GLXMAW (Soybean, Williams)
Preemergence herbicidal rating GLXMAW: 1.0
--
Input smiles: Cn1c(C(F)(F)F)cc(=O)n(-c2cc(N=C3SCC(=O)N3Cc3ccc(C(F)(F)F)cc3)c(Cl)cc2F)c1=O
Test target: GLXMAW (Soybean, Williams)
Preemergence herbicidal rating GLXMAW: 0.0
--
Input smiles: Cc1ccc(CN2C(=O)CSC2=Nc2cc(-n3c(=O)cc(C(F)(F)F)n(C)c3=O)c(F)cc2Cl)cc1Cl
Test target: GLXMAW (Soybean, Williams)
Preemergence herbicidal rating GLXMAW: 3.0

* * *

Test system: SETVI (Foxtail, Green)
Test: Preemergence herbicidal evaluation
Type: in vivo, Setaria viridis
Settings: rate 0.2500 kg/ha; rated 4-5 weeks after treatment
From the text: Results of herbicide evaluation are expressed on a rating scale (0-9). The scale is based upon a visual observation of plant stand, vigor, malformation, size, chlorosis and overall plant appearance as compared with a control. […] The compounds evaluated are reported by compound number given in Example 37.

Compound: Cn1c(C(F)(F)F)cc(=O)n(-c2cc(N=C3NC(=O)CS3)c(Cl)cc2F)c1=O [Compound 39]
Preemergence herbicidal rating SETVI: 2.0
//
Compound: COC(=O)[C@@H](Cc1ccccc1)N1C(=O)CSC1=Nc1cc(-n2c(=O)cc(C(F)(F)F)n(C)c2=O)c(F)cc1Cl [Compound 74]
Preemergence herbicidal rating SETVI: 9.0
//
Compound: Cn1c(C(F)(F)F)cc(=O)n(-c2cc(/N=C3/SC(CC(=O)O)C(=O)N3CC(=O)O)c(Cl)cc2F)c1=O (stereo not shown) [Compound 61]
Preemergence herbicidal rating SETVI: 1.0
//
Compound: CCOC(=O)CN1C(=O)C(CC(=O)OC)S/C1=N/c1cc(-n2c(=O)cc(C(F)(F)F)n(C)c2=O)c(F)cc1Cl (stereo not shown) [Compound 54]
Preemergence herbicidal rating SETVI: 9.0

* * *

Some molecules, each annotated with its measured Herbicidal rating ECHCG.
tested on: ECHCG (Barnyardgrass); test: Postemergence herbicidal evaluation; assay type: in vivo, Echinochloa crus-galli; details: postemergence, rate 0.0313 kg/ha

Molecule: CCOC(=O)CN1C(=O)C(C(=O)OC(C)(C)C)SC1=Nc1cc(-n2c(=O)cc(C(F)(F)F)n(C)c2=O)c(F)cc1Cl (centres unmarked)
Test target: ECHCG (Barnyardgrass)
Herbicidal rating ECHCG: 3.0
//
Molecule: COc1cc(CN2C(=O)CSC2=Nc2cc(-n3c(=O)cc(C(F)(F)F)n(C)c3=O)c(F)cc2Cl)cc(OC)c1OC
Test target: ECHCG (Barnyardgrass)
Herbicidal rating ECHCG: 0.0
//
Molecule: Cn1c(C(F)(F)F)cc(=O)n(-c2cc(N=C3SCC(=O)N3Cc3ccc(C(F)(F)F)cc3)c(Cl)cc2F)c1=O
Test target: ECHCG (Barnyardgrass)
Herbicidal rating ECHCG: 0.0
//
Molecule: CN1C(=O)C(CC(=O)NS(=O)(=O)c2ccccc2)SC1=Nc1cc(-n2c(=O)cc(C(F)(F)F)n(C)c2=O)c(F)cc1Cl (centres unmarked)
Test target: ECHCG (Barnyardgrass)
Herbicidal rating ECHCG: 1.0
//
Molecule: Cn1c(C(F)(F)F)cc(=O)n(-c2cc(N=C3SCC(=O)N3Cc3ccccn3)c(Cl)cc2F)c1=O
Test target: ECHCG (Barnyardgrass)
Herbicidal rating ECHCG: 2.0
//
Molecule: C=CCN1C(=O)C(CC(=O)NS(=O)(=O)CC)SC1=Nc1cc(-n2c(=O)cc(C(F)(F)F)n(C)c2=O)c(F)cc1Cl (centres unmarked)
Test target: ECHCG (Barnyardgrass)
Herbicidal rating ECHCG: 0.0
//
Molecule: Cc1ccc(CN2C(=O)CSC2=Nc2cc(-n3c(=O)cc(C(F)(F)F)n(C)c3=O)c(F)cc2Cl)cc1Cl
Test target: ECHCG (Barnyardgrass)
Herbicidal rating ECHCG: 0.0
//
Molecule: Cn1c(C(F)(F)F)cc(=O)n(-c2cc(N=C3SCC(=O)N3CC(=O)OC3CCCC3)c(Cl)cc2F)c1=O
Test target: ECHCG (Barnyardgrass)
Herbicidal rating ECHCG: 2.0
//
Molecule: Cn1c(C(F)(F)F)cc(=O)n(-c2cc(N=C3SCC(=O)N3Cc3cccc(Cl)c3)c(Cl)cc2F)c1=O
Test target: ECHCG (Barnyardgrass)
Herbicidal rating ECHCG: 3.0
//
Molecule: CCOC(=O)CN1C(=O)C(C(=O)OC)SC1=Nc1cc(-n2c(=O)cc(C(F)(F)F)n(C)c2=O)c(F)cc1Cl (centres unmarked)
Test target: ECHCG (Barnyardgrass)
Herbicidal rating ECHCG: 2.0
//
Molecule: Cn1c(C(F)(F)F)cc(=O)n(-c2cc(N=C3SCC(=O)N3C3CCCC3)c(Cl)cc2F)c1=O
Test target: ECHCG (Barnyardgrass)
Herbicidal rating ECHCG: 0.0

* * *

tested on: ORYSAT (Rice, Tebonnet); experiment: Rice tolerance to post-transplant applications, flooded paddy conditions (Table IV); type: in vivo, Oryza sativa, (L.) Tebonnet; conditions: in vivo
Quantity name: Herbicidal rating ORYSAT (rice tolerance)

Molecule: C[C@@H](C(=O)O)N1C(=O)CS/C1=N/c1cc(-n2c(=O)cc(C(F)(F)F)n(C)c2=O)c(F)cc1Cl [Compound 51]
Test target: ORYSAT (Rice, Tebonnet)
Measured number: 0.0
//
Molecule: CCOC(=O)CN1C(=O)C(CC(=O)O)S/C1=N/c1cc(-n2c(=O)cc(C(F)(F)F)n(C)c2=O)c(F)cc1Cl (stereo not drawn) [Compound 16]
Test target: ORYSAT (Rice, Tebonnet)
Measured number: 0.0
//
Molecule: CN1C(=O)C(CC(=O)O)SC1=Nc1cc(-n2c(=O)cc(C(F)(F)F)n(C)c2=O)c(F)cc1Cl (stereo not drawn) [Compound 63]
Test target: ORYSAT (Rice, Tebonnet)
Measured number: 3.0
//
Molecule: CCOC(=O)CN1C(=O)C(=Cc2ccccc2)SC1=Nc1cc(-n2c(=O)cc(C(F)(F)F)n(C)c2=O)c(F)cc1Cl [Compound 19]
Test target: ORYSAT (Rice, Tebonnet)
Measured number: 3.0
//
Molecule: CC(C)C[C@@H](C(=O)O)N1C(=O)CSC1=Nc1cc(-n2c(=O)cc(C(F)(F)F)n(C)c2=O)c(F)cc1Cl [Compound 71]
Test target: ORYSAT (Rice, Tebonnet)
Measured number: 4.0
//
Molecule: CCOC(=O)CN1C(=O)C(Cc2ccccc2)SC1=Nc1cc(-n2c(=O)cc(C(F)(F)F)n(C)c2=O)c(F)cc1Cl (stereo not drawn) [Compound 24]
Test target: ORYSAT (Rice, Tebonnet)
Measured number: 0.0
//
Molecule: CCOC(=O)CN1C(=O)C(CC(=O)O)SC1=Nc1cc(-n2c(=O)cc(C(F)(F)F)n(C)c2=O)c(Cl)cc1Cl (stereo not drawn) [Compound 33]
Test target: ORYSAT (Rice, Tebonnet)
Measured number: 0.0
//
Molecule: Cn1c(C(F)(F)F)cc(=O)n(-c2cc(/N=C3/SC(CC(=O)O)C(=O)N3CC(=O)O)c(Cl)cc2F)c1=O (stereo not drawn) [Compound 61]
Test target: ORYSAT (Rice, Tebonnet)
Measured number: 0.0
//
Molecule: CCC1SC(=Nc2cc(N3C(=O)C4=C(CCCC4)C3=O)c(F)cc2Cl)N(C)C1=O (stereo not drawn) [Compound 6]
Test target: ORYSAT (Rice, Tebonnet)
Measured number: 0.0
